B1: library; a variant is named by its letters at N, in order (parent)
chain: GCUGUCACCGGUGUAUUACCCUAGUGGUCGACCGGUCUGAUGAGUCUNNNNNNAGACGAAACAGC

- Variants of: B1
- test: normalized RNA/DNA level without ligand (relative to sTRSVctl = 100) (log10 (% of sTRSVctl)); ligand: hypoxanthine (xanthine aptamer); higher = less ribozyme self-cleavage, higher mRNA level
- test context: HEK293T, reporter: mCherry (pCS4076), ligand present: no
attribute measured: normalized RNA/DNA level without ligand (log10)
Lab note: write the figure by itself, no unit.

Below, 5 variants whose answers are already recorded.
>  <variant key>
AUAAUA

>  <reported value>
1.82

$$$$
>  <variant key>
AAUCAC

>  <reported value>
1.85

$$$$
>  <variant key>
AGCUCC

>  <reported value>
1.95

$$$$
>  <variant key>
GGAUGG

>  <reported value>
1.33

$$$$
>  <variant key>
UUUGCA

>  <reported value>
1.89

$$$$

Data request: If you can, please state the reported normalized RNA/DNA level without ligand (log10) value of AACGAC .
Data returned: 1.79

Data request: Same for GCUCGG
Data returned: 1.4

Data request: Next record, please: UCCAGC
Data returned: 1.9

Data request: How about this variant: AUGAUU
Data returned: 1.71

Data request: Please answer likewise for UGACAU
Data returned: 1.81

Data request: Same thing, different variant: GGCCGC
Data returned: 1.7
